As shown below, each of these compounds has a reported Ki value.
target: Aurora-1 (Aurora B) (Homo sapiens, UniProt Q96GD4); experiment: Aurora-1 (Aurora B) inhibition assay (radiometric); assay type: biochemical; conditions: read-out: Aurora B kinase Ki value
Sequence (Q96GD4 whole entry): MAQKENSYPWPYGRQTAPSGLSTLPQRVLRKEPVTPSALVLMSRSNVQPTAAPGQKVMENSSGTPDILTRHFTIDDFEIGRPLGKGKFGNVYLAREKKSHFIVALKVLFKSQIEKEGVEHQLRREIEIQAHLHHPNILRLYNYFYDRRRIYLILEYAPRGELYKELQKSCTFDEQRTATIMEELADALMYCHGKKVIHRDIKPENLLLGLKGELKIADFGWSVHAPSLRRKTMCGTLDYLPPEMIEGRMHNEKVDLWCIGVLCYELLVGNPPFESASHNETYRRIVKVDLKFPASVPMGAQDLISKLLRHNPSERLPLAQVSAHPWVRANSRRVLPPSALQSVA

Solved cases below.
compound	Ki
Cc1cc(Nc2cc(N3CC(F)(C4CC4)C3)nc(Sc3ccc4ccn(CC(F)(F)F)c(=O)c4c3)n2)[nH]n1 [Compound 189]	50 to 2000 nM
Cc1cc(Nc2cc(N3CC(F)(C4CC4)C3)nc(Sc3ccc(NC(=O)CN(C)C)cc3)n2)[nH]n1 [Compound 152]	≤ 10 nM
CCC(Nc1ccc(Sc2nc(Nc3cc(C)n[nH]3)cc(N3CC(O)(C4CC4)C3)n2)cc1)C(F)(F)F (stereo not drawn) [Compound 136]	50 to 2000 nM
CCC1(F)CN(c2cc(Nc3cc(C)n[nH]3)nc(Sc3ccc(NC(=O)CC(F)(F)F)cc3)n2)C1 [Compound 196]	≤ 10 nM
CCC(=O)Nc1ccc(Sc2nc(Nc3cc(C)n[nH]3)cc(N3CC(O)(C4CCCCC4)C3)n2)cc1 [Compound 101]	≤ 10 nM

[ask] Please report Ki for the following compound: Cc1cc(Nc2cc(N3CCC3)nc(Sc3ccc(-n4ccccc4=O)cc3)n2)[nH]n1 [Compound 47]
[reply] 50 to 2000 nM

[ask] Please report Ki for the following compound: Cc1cc(Nc2cc(N3CCC3)nc(Sc3ccc(NC(=O)C4(C(F)(F)F)CC4)cc3)n2)[nH]n1 [Compound 142]
[reply] ≤ 10 nM

[ask] Please report Ki for the following compound: COC1(C)CN(c2cc(Nc3cc(C)n[nH]3)nc(Sc3ccc(NC(=O)c4ccccc4Cl)cc3)n2)C1 [Compound 51]
[reply] ≤ 10 nM

* * *

target: JAK3 (Homo sapiens); experiment: biochemical
measured.metric: Ki

chemical.smiles	Ki
CC1=NN=C(Nc2cc(N3CCC3)nc(Sc3ccc(NC(=O)c4ccccc4)cc3)n2)C1	10 to 500 nM
Cc1cc(Nc2cc(N3CCC3)nc(Sc3ccc(NC(=O)c4ccccc4N(C)C)cc3)n2)[nH]n1	500 to 2000 nM
CCC(=O)Nc1ccc(Sc2nc(Nc3cc(C)[nH]n3)cc(N3CC(O)C3)n2)cc1	10 to 500 nM

[ask] # lookup: JAK3 (Homo sapiens) Ki, key = Cc1cc(Nc2cc(N3CCC3)nc(Sc3ccc(NC(=O)c4ccc(Cl)cc4)cc3)n2)n[nH]1
[reply] 10 to 500 nM

[ask] # lookup: JAK3 (Homo sapiens) Ki, key = Cc1cc(Nc2cc(N3CCC3)nc(Sc3ccc(N(C)C(=O)c4ccccc4F)cc3)n2)n[nH]1
[reply] 10 to 500 nM

[ask] # lookup: JAK3 (Homo sapiens) Ki, key = Cc1cc(Nc2cc(N3CCC3)nc(Sc3ccc(NC(=O)CCC(F)(F)F)cc3)n2)[nH]n1
[reply] 10 to 500 nM

* * *

molecular target: Aurora-1 (Aurora B) (Homo sapiens, UniProt Q96GD4); assay: Aurora-1 (Aurora B) inhibition assay (radiometric); format: biochemical; settings: read-out: Aurora B kinase Ki value
measured.metric: Ki

chemical.smiles	measurement
Cc1cc(Nc2cc(N3CCC3)nc(Sc3ccc(NC(=O)c4sc(C)nc4C)cc3)n2)n[nH]1	50 to 2000 nM
CC1=NN=C(Nc2cc(N3CCC3)nc(Sc3ccc(NC(=O)c4cccc(Cl)c4F)cc3)n2)C1	≤ 10 nM
Cc1cc(Nc2cc(N3CCC3)nc(Sc3ccc(NC(=O)c4ccccc4F)cc3)n2)n[nH]1	≤ 10 nM

[ask] Please report Ki for the following molecule: Cc1cc(Nc2cc(N3CC(F)(C4CC4)C3)nc(Sc3ccc(NC(=O)[C@H]4CCCN4C(C)C)cc3)n2)[nH]n1
[reply] 50 to 2000 nM

[ask] Please report Ki for the following molecule: Cc1cc(Nc2cc(N3CC(C)(C(C)(C)F)C3)nc(Sc3ccc(NC(=O)CC(F)(F)F)cc3)n2)[nH]n1
[reply] ≤ 10 nM

[ask] Please report Ki for the following molecule: COC1CN(c2cc(Nc3cc(C)n[nH]3)nc(Sc3ccc(NC(=O)c4ccccc4C(F)(F)F)cc3)n2)C1
[reply] ≤ 10 nM

[ask] Please report Ki for the following molecule: CCC(=O)Nc1ccc(Sc2nc(Nc3cc(C)n[nH]3)cc(N3CC4(C3)OCC4(C)C)n2)cc1
[reply] 10 to 50 nM

[ask] Please report Ki for the following molecule: Cc1cc(Nc2cc(N3CC(F)(C4CC4)C3)nc(Sc3ccc(NS(C)(=O)=O)cc3)n2)[nH]n1
[reply] 50 to 2000 nM

[ask] Please report Ki for the following molecule: Cc1cc(Nc2nc(Sc3ccc(NC(=O)CC(F)(F)F)cc3)nc(N3CC(F)(C4CC4)C3)c2F)[nH]n1
[reply] 10 to 50 nM

[ask] Please report Ki for the following molecule: O=C(CC(F)(F)F)Nc1ccc(Sc2nc(Nc3cc[nH]n3)cc(N3CC(F)(C4CC4)C3)n2)cc1
[reply] 50 to 2000 nM

* * *

As shown below, each of these compounds has a reported Ki value.
target: JAK3 (Homo sapiens, UniProt P52333); test: biochemical
Sequence (P52333 whole entry, species assumed): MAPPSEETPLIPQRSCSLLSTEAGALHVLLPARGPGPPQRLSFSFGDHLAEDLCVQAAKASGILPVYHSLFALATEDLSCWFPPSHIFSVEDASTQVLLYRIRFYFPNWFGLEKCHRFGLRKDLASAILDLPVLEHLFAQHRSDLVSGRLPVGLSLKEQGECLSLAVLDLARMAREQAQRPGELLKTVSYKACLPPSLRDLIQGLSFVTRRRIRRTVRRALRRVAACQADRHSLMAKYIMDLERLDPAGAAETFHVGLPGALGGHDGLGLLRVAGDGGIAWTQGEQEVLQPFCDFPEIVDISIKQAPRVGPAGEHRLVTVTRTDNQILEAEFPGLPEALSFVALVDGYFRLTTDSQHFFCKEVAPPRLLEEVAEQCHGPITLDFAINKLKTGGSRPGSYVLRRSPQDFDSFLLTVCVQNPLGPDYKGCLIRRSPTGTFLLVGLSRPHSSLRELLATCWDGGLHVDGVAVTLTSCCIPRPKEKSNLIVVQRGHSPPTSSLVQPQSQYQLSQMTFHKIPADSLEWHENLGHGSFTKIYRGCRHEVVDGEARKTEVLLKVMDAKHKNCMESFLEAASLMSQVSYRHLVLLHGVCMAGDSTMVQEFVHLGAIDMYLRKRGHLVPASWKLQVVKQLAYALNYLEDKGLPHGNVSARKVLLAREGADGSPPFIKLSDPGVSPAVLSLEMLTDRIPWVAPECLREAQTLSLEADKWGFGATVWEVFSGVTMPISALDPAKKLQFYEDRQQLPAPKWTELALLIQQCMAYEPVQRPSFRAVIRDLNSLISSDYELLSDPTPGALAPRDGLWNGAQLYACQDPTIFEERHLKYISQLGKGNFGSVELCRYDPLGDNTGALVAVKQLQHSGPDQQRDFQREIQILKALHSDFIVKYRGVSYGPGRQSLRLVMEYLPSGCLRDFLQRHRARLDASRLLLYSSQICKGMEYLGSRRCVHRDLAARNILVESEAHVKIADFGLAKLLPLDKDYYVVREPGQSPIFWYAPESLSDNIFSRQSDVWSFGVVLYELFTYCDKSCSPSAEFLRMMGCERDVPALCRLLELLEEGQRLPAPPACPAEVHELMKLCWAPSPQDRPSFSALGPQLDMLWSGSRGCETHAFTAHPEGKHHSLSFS

Solved cases below.
chemical.smiles	Ki
Cc1cc(Nc2cc(N3CC(OC(=O)CN(C)C)(C4CC4)C3)nc(Sc3ccc(NC(=O)C4CC4)cc3)n2)n[nH]1	0.01 to 0.5 µM
Cc1cc(Nc2cc(N3CC(F)(C4CC4)C3)nc(Sc3ccc(NC(=O)CC4CC4)cc3)n2)[nH]n1	0.5 to 2 µM
Cc1ccc(S(=O)(=O)Nc2ccc(Sc3nc(Nc4cc(C)[nH]n4)cc(N4CCC4)n3)cc2)cc1	0.5 to 2 µM
Cc1cc(Nc2cc(N3CC(O)(C4CC4)C3)nc(Oc3ccc4nc(C)sc4c3)n2)[nH]n1	≤ 0.01 µM
CCC(=O)Nc1ccc(Sc2nc(Nc3cc(C4CC4)n[nH]3)cc(N3CC(C)(O)C3)n2)cc1	≤ 0.01 µM

[ask] Please report Ki for the following compound: CC1=NN=C(Nc2cc(N3CCC3)nc(Sc3ccc(NC(=O)c4cccc(C(F)(F)F)c4F)cc3)n2)C1
[reply] 0.01 to 0.5 µM

[ask] Please report Ki for the following compound: CCC(=O)Nc1ccc(Sc2nc(Nc3cc(C)n[nH]3)cc(N3CC(O)(C4CCCC4)C3)n2)cc1
[reply] 0.01 to 0.5 µM
